Target: T1, NTH1 (endonuclease III) (Homo sapiens, UniProt P78549 1-304)
T1 sequence: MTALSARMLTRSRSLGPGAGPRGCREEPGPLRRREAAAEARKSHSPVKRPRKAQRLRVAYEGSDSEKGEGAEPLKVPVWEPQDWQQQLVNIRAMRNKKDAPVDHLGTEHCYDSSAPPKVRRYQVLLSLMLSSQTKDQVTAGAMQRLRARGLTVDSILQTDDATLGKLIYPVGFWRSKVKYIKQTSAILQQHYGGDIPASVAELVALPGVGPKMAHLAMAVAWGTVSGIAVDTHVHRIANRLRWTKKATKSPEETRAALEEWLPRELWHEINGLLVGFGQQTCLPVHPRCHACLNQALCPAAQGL
Assay: MST; MST: 50 mM Tris-HCl pH 7.5, 50 mM KCl, 1 mM EDTA, 1 mM DTT, 7% glycerol, 25 C, 10 min, 0.5 uM DNA; authors call Kd values estimates only
Details: protein: recombinant; label: 5'-FAM on strand 2; blunt
Assay Endpoint: pKd
In textbook form, pKd equals minus log to base ten of the concentration in mol/L.

Request: pKd for C/G (dsDNA) DNA 1: GCTCACGTACAGAGCTG DNA 2: CAGCTCTGTACGTGAGC ?
Response: 6.15
